Ki values for the molecules below.
Biological target: Leucine--tRNA ligase (Escherichia coli (strain K12), UniProt P07813)
Sequence (P07813 whole entry): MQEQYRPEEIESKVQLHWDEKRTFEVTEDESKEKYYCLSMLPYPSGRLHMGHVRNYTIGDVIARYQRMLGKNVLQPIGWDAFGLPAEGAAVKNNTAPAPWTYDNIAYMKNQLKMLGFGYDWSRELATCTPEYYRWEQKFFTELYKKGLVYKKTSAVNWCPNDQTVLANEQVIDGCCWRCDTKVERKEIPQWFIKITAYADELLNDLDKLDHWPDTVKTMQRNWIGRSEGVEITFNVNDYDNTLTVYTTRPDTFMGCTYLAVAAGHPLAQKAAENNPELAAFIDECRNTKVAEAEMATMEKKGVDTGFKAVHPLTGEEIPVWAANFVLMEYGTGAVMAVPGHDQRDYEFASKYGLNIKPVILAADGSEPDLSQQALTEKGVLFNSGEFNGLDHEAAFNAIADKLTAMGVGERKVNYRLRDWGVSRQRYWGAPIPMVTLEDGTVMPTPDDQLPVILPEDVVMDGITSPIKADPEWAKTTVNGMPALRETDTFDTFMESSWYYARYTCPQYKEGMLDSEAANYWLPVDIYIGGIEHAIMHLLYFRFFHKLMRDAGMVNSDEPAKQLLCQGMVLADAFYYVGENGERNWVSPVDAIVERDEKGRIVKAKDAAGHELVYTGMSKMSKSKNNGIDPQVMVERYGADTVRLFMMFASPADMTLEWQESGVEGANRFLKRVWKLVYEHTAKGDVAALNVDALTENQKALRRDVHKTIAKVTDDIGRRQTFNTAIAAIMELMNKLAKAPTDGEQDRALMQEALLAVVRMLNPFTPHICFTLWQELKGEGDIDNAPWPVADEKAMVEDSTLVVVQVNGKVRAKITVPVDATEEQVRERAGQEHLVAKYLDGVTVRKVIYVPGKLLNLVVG
Experiment: Inhibition of purified Escherichia coli BL21 (DE3) leuRS incubated for 10 mins in presence of 14C-labeled leucine by radiolabel transfer assay
Conditions: read-out: Ki(app)
The figure you give is taken to be in nM; do not add the unit.

Below, 2 molecules whose answers are already recorded.
[
  {
    "QUERY SMILES": "CC(C)C[C@H](N)C(=O)NS(=O)(=O)OC[C@H]1O[C@@H](n2ccc(=O)[nH]c2=O)[C@H](O)[C@@H]1O",
    "RESULT NUMBER": 20.8
  },
  {
    "QUERY SMILES": "CC(C)C[C@H](N)C(=O)NS(=O)(=O)OC[C@H]1O[C@@H](n2ccc(N)nc2=O)[C@H](O)[C@@H]1O",
    "RESULT NUMBER": 9.8
  }
]

Turning to the following molecule.
INPUT: // Ki lookup, key: `CC(C)C[C@H](N)C(=O)NS(=O)(=O)OC[C@H]1O[C@@H](n2ccc(=O)n(C)c2=O)[C@H](O)[C@@H]1O`
OUTPUT: 29.5
